Target: HLA DRB1*0101 (human)
Test: competition with radiolabeled probe peptide, purified MHC
Endpoint Name: IC50 (nM)
I only need the number, in nM, no unit after it.

KTSLCLMMILPAALA (modifications not checked) [C101-115] :: 12

Kindly review the next binder as well.
Kindly indicate its recorded IC50. Item: GSWKLEKASLIEVKT (modifications not checked) [NS1984-998]
56
